- condition label: in methyl acetate, 298.15 K
observable: solubility (mole fraction)
Just the number.

Request: Find the recorded solubility (mole fraction) belonging to "CC1(C)S[C@@H]2[C@H](NC(=O)[C@H](NC(=O)N3CCNC3=O)c3ccccc3)C(=O)N2[C@H]1C(=O)O" and report it.
Result: 0.000565

====

- condition label: in methanol, 298.15 K
observable: solubility (mole fraction)
Just the number.

Request: Find the recorded solubility (mole fraction) belonging to "CC1(C)S[C@@H]2[C@H](NC(=O)[C@H](NC(=O)N3CCNC3=O)c3ccccc3)C(=O)N2[C@H]1C(=O)O" and report it.
Result: 0.000602

====

- condition label: in isopropyl acetate, 288.15 K
observable: solubility (mole fraction)

Request: Find the recorded solubility (mole fraction) belonging to "CC1(C)S[C@@H]2[C@H](NC(=O)[C@H](NC(=O)N3CCNC3=O)c3ccccc3)C(=O)N2[C@H]1C(=O)O" and report it.
Result: 9.25e-05

====

- condition label: in isopropyl acetate, 278.15 K
observable: solubility (mole fraction)
Just the number.

Request: Find the recorded solubility (mole fraction) belonging to "CC1(C)S[C@@H]2[C@H](NC(=O)[C@H](NC(=O)N3CCNC3=O)c3ccccc3)C(=O)N2[C@H]1C(=O)O" and report it.
Result: 6.88e-05

====

- condition label: in ethyl acetate, 298.15 K
observable: solubility (mole fraction)
Just the number.

Request: Find the recorded solubility (mole fraction) belonging to "CC1(C)S[C@@H]2[C@H](NC(=O)[C@H](NC(=O)N3CCNC3=O)c3ccccc3)C(=O)N2[C@H]1C(=O)O" and report it.
Result: 0.000353

====

- condition label: in ethyl acetate, 303.15 K
observable: solubility (mole fraction)
Just the number.

Request: Find the recorded solubility (mole fraction) belonging to "CC1(C)S[C@@H]2[C@H](NC(=O)[C@H](NC(=O)N3CCNC3=O)c3ccccc3)C(=O)N2[C@H]1C(=O)O" and report it.
Result: 0.000411

====

- condition label: in isopropyl acetate, 298.15 K
observable: solubility (mole fraction)
Just the number.

Request: Find the recorded solubility (mole fraction) belonging to "CC1(C)S[C@@H]2[C@H](NC(=O)[C@H](NC(=O)N3CCNC3=O)c3ccccc3)C(=O)N2[C@H]1C(=O)O" and report it.
Result: 0.000116

====

- condition label: in ethanol, 318.15 K
observable: solubility (mole fraction)
Just the number.

Request: Find the recorded solubility (mole fraction) belonging to "CC1(C)S[C@@H]2[C@H](NC(=O)[C@H](NC(=O)N3CCNC3=O)c3ccccc3)C(=O)N2[C@H]1C(=O)O" and report it.
Result: 0.00296

====

- condition label: in ethyl acetate, 288.15 K
observable: solubility (mole fraction)
Just the number.

Request: Find the recorded solubility (mole fraction) belonging to "CC1(C)S[C@@H]2[C@H](NC(=O)[C@H](NC(=O)N3CCNC3=O)c3ccccc3)C(=O)N2[C@H]1C(=O)O" and report it.
Result: 0.000287

====

- condition label: in methanol, 278.15 K
observable: solubility (mole fraction)

Request: Find the recorded solubility (mole fraction) belonging to "CC1(C)S[C@@H]2[C@H](NC(=O)[C@H](NC(=O)N3CCNC3=O)c3ccccc3)C(=O)N2[C@H]1C(=O)O" and report it.
Result: 0.000281

====

- condition label: in methyl acetate, 318.15 K
observable: solubility (mole fraction)

Request: Find the recorded solubility (mole fraction) belonging to "CC1(C)S[C@@H]2[C@H](NC(=O)[C@H](NC(=O)N3CCNC3=O)c3ccccc3)C(=O)N2[C@H]1C(=O)O" and report it.
Result: 0.00107

====

- condition label: in methyl acetate, 283.15 K
observable: solubility (mole fraction)

Request: Find the recorded solubility (mole fraction) belonging to "CC1(C)S[C@@H]2[C@H](NC(=O)[C@H](NC(=O)N3CCNC3=O)c3ccccc3)C(=O)N2[C@H]1C(=O)O" and report it.
Result: 0.000313

====

- condition label: in ethyl acetate, 308.15 K
observable: solubility (mole fraction)
Just the number.

Request: Find the recorded solubility (mole fraction) belonging to "CC1(C)S[C@@H]2[C@H](NC(=O)[C@H](NC(=O)N3CCNC3=O)c3ccccc3)C(=O)N2[C@H]1C(=O)O" and report it.
Result: 0.000462

====

- condition label: in THF, 283.15 K
observable: solubility (mole fraction)
Just the number.

Request: Find the recorded solubility (mole fraction) belonging to "CC1(C)S[C@@H]2[C@H](NC(=O)[C@H](NC(=O)N3CCNC3=O)c3ccccc3)C(=O)N2[C@H]1C(=O)O" and report it.
Result: 0.00115
